Target under test: T1, human MSLN-hFc protein (Acro, Cat. No. MSN-H5253) (human, UniProt Q13421 296-580)
T1 construct: the method names the coated protein as human MSLN-hFc (Acro); also called human MSLN full-length protein
T1 sequence (Q13421 other isoform, or with tags, fused parts or gaps limits assumed): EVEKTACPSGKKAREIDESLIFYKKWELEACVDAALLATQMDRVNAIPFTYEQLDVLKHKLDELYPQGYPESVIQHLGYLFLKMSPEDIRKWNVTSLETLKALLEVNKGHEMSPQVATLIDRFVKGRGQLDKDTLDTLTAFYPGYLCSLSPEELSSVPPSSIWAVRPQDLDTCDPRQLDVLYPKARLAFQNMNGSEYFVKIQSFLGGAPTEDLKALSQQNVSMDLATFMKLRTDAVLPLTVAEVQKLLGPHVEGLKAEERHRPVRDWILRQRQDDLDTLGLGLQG
Protocol description: ELISA on coated antigen, antibody 0.001 nM

Binder	OD450, OD450
F7.33.24-H7 (scFv, not shown: small tags and cut ends, also called S009-F7.33.24 humanized antibody VH2 + VL1) scFv: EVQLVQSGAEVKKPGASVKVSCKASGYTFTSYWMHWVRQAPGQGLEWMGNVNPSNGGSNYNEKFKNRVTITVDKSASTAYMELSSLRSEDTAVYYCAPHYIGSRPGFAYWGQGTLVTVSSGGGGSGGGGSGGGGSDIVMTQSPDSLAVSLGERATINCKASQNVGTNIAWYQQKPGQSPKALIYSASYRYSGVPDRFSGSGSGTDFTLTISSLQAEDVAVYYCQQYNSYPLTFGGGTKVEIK	0.06
